The entries below are paired with their reported IC50.
target: P2X7 receptor (Homo sapiens); assay: IL-1β release assay in differentiated THP-1 cells stimulated with BzATP (Example 9); % inhibition and IC50; details: THP-1 cells differentiated with LPS and IFN-γ, 30 min pretreatment, BzATP 250 uM, IL-1β by ELISA
Write down the numeric answer in nM and omit the unit.

Recorded IC50 of Cc1ccc2c(c1NC(=O)Cc1ccc(C(F)(F)F)c(F)c1)CCN([C@H](C)CO)C2=O [Compound 401] , please.
1.44

What do you have for O=C(Cc1ccc(F)c(Cl)c1)Nc1cccc2c(=O)n(CCO)ccc12 [Compound 341] ?
52.6

What do you have for CC(C)C[C@H](CO)n1ccc2c(NC(=O)Cc3ccc(Cl)c(Cl)c3)cccc2c1=O [Compound 275] ?
19.8

What do you have for O=C(Cc1ccc(C(F)(F)F)cc1)Nc1cccc2c(=O)n(CCO)ccc12 [Compound 7] ?
289

What do you have for CC(C(=O)Nc1cccc2c(=O)n(CCO)ccc12)c1ccc(Cl)c(C(F)(F)F)c1 (centres unmarked) [Compound 251] ?
57.3

What do you have for O=C(Cc1ccc(Cl)cc1)Nc1cccc2c(=O)n(CCO)ccc12 [Compound 4] ?
317

What do you have for C[C@H](CO)n1ccc2c(NC(=O)Cc3ccc(F)c(C(F)(F)F)c3)cccc2c1=O [Compound 339] ?
10.5

What do you have for C[C@H](C(N)=O)n1ccc2c(NC(=O)[C@H](C)c3ccc(Cl)c(Cl)c3)cccc2c1=O [Compound 269] ?
8.97

What do you have for CC(C(=O)Nc1cccc2c(=O)n([C@H](C)C(N)=O)ccc12)c1ccc(Cl)c(Cl)c1 (some centres unmarked) [Compound 254] ?
25.3

What do you have for CC(C(=O)Nc1cccc2c(=O)n([C@H](C)C(N)=O)ccc12)c1ccc(Cl)cc1 (some centres unmarked) [Compound 247] ?
18.8

What do you have for C[C@H](C(N)=O)n1ccc2c(NC(=O)Cc3ccc(F)cc3C(F)(F)F)cccc2c1=O [Compound 295] ?
184

What do you have for C[C@H](C(N)=O)n1ccc2c(NC(=O)Cc3ccc(C(F)(F)F)cc3)cccc2c1=O [Compound 298] ?
7.91

What do you have for O=C(CCc1cc(C(F)(F)F)ccc1C(F)(F)F)Nc1cccc2c(=O)n(CCO)ccc12 [Compound 62] ?
22.2

What do you have for C[C@H](C(N)=O)n1ccc2c(NC(=O)Cc3ccc(Cl)c(C(F)(F)F)c3)cccc2c1=O [Compound 238] ?
1.26

----------
biological target: P2X7 receptor (Homo sapiens, UniProt Q99572); assay: IL-1β release assay in differentiated THP-1 cells stimulated with BzATP (Example 9); % inhibition and IC50; settings: THP-1 cells differentiated with LPS and IFN-γ, 30 min pretreatment, BzATP 250 uM, IL-1β by ELISA
Sequence (Q99572 whole entry): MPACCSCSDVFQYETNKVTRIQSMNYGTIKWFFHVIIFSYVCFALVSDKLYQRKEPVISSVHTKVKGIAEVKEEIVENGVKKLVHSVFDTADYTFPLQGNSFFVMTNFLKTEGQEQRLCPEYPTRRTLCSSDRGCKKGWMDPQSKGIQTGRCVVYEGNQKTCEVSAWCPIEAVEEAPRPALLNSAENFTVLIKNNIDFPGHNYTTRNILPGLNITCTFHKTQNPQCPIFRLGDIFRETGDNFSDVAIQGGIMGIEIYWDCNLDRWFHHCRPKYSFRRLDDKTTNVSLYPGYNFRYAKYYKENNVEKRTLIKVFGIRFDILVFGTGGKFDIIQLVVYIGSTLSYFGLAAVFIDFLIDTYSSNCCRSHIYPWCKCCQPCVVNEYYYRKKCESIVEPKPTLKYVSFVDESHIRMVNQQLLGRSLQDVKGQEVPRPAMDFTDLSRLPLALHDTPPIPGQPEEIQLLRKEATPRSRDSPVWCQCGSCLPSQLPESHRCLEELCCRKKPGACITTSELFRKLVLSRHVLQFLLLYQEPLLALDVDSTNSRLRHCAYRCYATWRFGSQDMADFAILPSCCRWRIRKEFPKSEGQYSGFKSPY
Kindly apply the following: Y if IC50 is less than 70 nM, N in every other case.

Before answering, review these 6 worked examples.
> print(dat)
                              smiles.string  discrete.label
1  C[C@@H](CO)n1ccc2c(NC(=O)Cc3ccc(F)c(Cl)c3)cccc2c1=O               N
2  O=C(Cc1ccc2c(c1)OCCO2)Nc1cccc2c(=O)n(CCO)ccc12               N
3  O=C(Cc1ccc(Cl)c(C(F)(F)F)c1)Nc1cccc2c(=O)n(C[C@H]3CCCN3)ccc12               Y
4  CC(C)(CO)n1ccc2c(NC(=O)Cc3ccc(C(F)(F)F)cc3F)cccc2c1=O               N
5  C[C@H](C(N)=O)n1ccc2c(NC(=O)Cc3ccc(Cl)c(F)c3)cccc2c1=O               Y
6  C[C@H](C(N)=O)n1ccc2c(NC(=O)Cc3cc(F)c(F)cc3F)cccc2c1=O               Y

We now examine a further compound.
Is IC50 of C[C@H](C(N)=O)n1ccc2c(NC(=O)Cc3cccc(Cl)c3)cccc2c1=O strictly below 70 nM?
Y
